Test system: DMS-114
Assay: NCI tumour cell line growth inhibition, 48 h
Active and inactive are the calls of the source. Cut-off read from the data, not from the text of the source: active = GI50 up to about 1.1 µM and inactive = higher.
readout.label: GI50

Look over these answered cases.
GI50 value, target or system DMS-114, for CC(/C=C/c1ncccc1OCCCCCC(=O)O)=N\NC1=NCCN1 : > 100 µM (inactive)

GI50 value, target or system DMS-114, for COC1=C(OC)C(=O)c2cc(C)c(=O)c(C)cc2C1=O : 3.27 µM (inactive)

GI50 value, target or system DMS-114, for Cc1ccc(C2C(Cl)C(=O)N2n2cnc3ccccc3c2=O)cc1 (configuration not stated) : > 100 µM (inactive)

GI50 value, target or system DMS-114, for CSc1ccc2c(cc1=O)[C@@H](NC(=O)c1ccc(Cl)cc1)CCc1cc(O)c(O)c(O)c1-2 : 32.4 µM (inactive)

GI50 value, target or system DMS-114, for CCOC(=O)C1=C(C)N(NC(=O)OC)C2(N)N(NC(=O)OC)C(C)=C(C(=O)OCC)C12C#N (configuration not stated) : > 100 µM (inactive)

More entries:
GI50 value, target or system DMS-114, for O=C(c1ccccc1)c1ccc2cccc(OC3OC(CO)C(O)C(O)C3O)c2n1 (configuration not stated) : > 100 µM (inactive)

GI50 value, target or system DMS-114, for O=C(N/C(=C/c1cccc([N+](=O)[O-])c1)c1nc2cc(Cl)ccc2[nH]1)c1ccccc1 : 8.51 µM (inactive)
